Listing of recorded Kd by entry.
Test Target: human FAP protein (human, UniProt Q12884 26-760, limits assumed)
Sequence (Q12884 26-760 limits assumed): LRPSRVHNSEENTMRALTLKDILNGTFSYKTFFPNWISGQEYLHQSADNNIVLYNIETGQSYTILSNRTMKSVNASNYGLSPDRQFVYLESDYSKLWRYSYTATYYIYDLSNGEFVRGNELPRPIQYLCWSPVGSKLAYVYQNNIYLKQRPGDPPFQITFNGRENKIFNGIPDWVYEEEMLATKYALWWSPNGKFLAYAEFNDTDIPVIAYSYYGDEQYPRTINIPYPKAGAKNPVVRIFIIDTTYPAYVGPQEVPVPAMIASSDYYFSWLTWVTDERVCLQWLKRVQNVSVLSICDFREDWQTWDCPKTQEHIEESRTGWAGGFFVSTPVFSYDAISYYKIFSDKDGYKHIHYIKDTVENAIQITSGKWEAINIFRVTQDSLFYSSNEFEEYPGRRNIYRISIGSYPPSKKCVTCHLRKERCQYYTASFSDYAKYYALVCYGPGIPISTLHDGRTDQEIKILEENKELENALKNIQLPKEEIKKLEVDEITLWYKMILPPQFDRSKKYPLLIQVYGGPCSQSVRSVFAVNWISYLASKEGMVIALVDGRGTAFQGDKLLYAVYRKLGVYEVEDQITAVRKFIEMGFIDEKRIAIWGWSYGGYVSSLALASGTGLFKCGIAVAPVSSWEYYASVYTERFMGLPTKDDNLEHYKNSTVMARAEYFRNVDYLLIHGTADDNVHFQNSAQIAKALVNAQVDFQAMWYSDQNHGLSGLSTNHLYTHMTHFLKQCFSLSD
Method: method not stated
Quantity Measured: Kd (pM)

Binder	Measurement
FAP-A11 VK3-VH1 (scFv, also called FAP-A11VK3VH1 (RS, NNN)) scFv: EIVLTQSPGTLSLSPGERATLSCRASQPIRSYLAWYQQKPGQAPRLLIFSASNRATGIPDRFSGSGSGTEFTLTISSLEPEDFAVYYCQQYYDWPPYTFGGGTKVEIKGGGGSGGGGSGGGGSGGGGSDVQLVESGGGLVQPGGSLRLSCAASGFSMSNFAMTWVRQAPGEGLEWVSGIRGSGTTYYAESVKGRFTVSRDNSKNTLYLQMNSLRAEDTAIYYCAKTWGTEYFDYWGLGTLVTVSS	199
FAP-A11 VK7-VH1 (FAP #3) (scFv, format in the KD assay not described; also called FAP-A11VK7VH1 (SS, NNN)) scFv: EIVLTQSPGTLSLSPGERATLSCRASQPISSYLAWYQQKPGQAPRLLIFSASNRATGIPDRFSGSGSGTEFTLTISSLEPEDFAVYYCQQYYDWPPYTFGGGTKVEIKGGGGSGGGGSGGGGSGGGGSDVQLVESGGGLVQPGGSLRLSCAASGFSMSNFAMTWVRQAPGEGLEWVSGIRGSGTTYYAESVKGRFTVSRDNSKNTLYLQMNSLRAEDTAIYYCAKTWGTEYFDYWGLGTLVTVSS	1500
FAP-C3 parental (scFv, the format in the KD assay is told only as 'SCFV'; also called FAP-C3SCFVWT; FAP #4) scFv: EIVLTQSPGTLSLSPGERATLSCRASQSVGHYLAWYQQKPGQAPRLLIYDASNRAIDIPDRFSGSGSGTEFTLTISRLEPEDFAVYYCQQYYNNWPPLTFGGGTKVEIKGGGGSGGGGSGGGGSGGGGSDVQLVESGGGVVRPGESLTLSCAASGFTFSNYDMGWVRQAPGEGLEWVSGIRGRGGSTYYADSVKGRFTISRDSSKNTLYLQMNSLRAEDTAVYYCAKENNRHSFFEYWGLGTLVTVSS	36
FAP-A11 VK3-VH13 (FAP #2) (scFv, format in the KD assay not described; also called FAP-A11VK3VH13 (RS, QQQ); A11 VK3/VH3) scFv: EIVLTQSPGTLSLSPGERATLSCRASQPIRSYLAWYQQKPGQAPRLLIFSASNRATGIPDRFSGSGSGTEFTLTISSLEPEDFAVYYCQQYYDWPPYTFGGGTKVEIKGGGGSGGGGSGGGGSGGGGSDVQLVESGGGLVQPGGSLRLSCAASGFSMSNFAMTWVRQAPGEGLEWVSGIRGSGTTYYAESVKGRFTVSRDQSKQTLYLQMQSLRAEDTAIYYCAKTWGTEYFDYWGLGTLVTVSS	538
FAP-A11 parental (scFv, the format in the KD assay is told only as 'SCFV'; also called FAP-A11SCFV(WT); FAP #1) scFv: EIVLTQSPGTLSLSPGERATLSCRASQPINNYLAWYQQKPGQAPRLLIFSASNRATGIPDRFSGSGSGTEFTLTISSLEPEDFAVYYCQQYYDWPPYTFGGGTKVEIKGGGGSGGGGSGGGGSGGGGSDVQLVESGGGLVQPGGSLRLSCAASGFSMSNFAMTWVRQAPGEGLEWVSGIRGSGTTYYADSVKGRFTVSRDNSKNTLYLQMNSLRAEDTAIYYCAKTWGTEYFDYWGLGTLVTVSS	1040
FAP-C3 VK1-VH14 (FAP #5) (scFv, format in the KD assay not described; also called FAP-C3VK1VH14 (ND, SY, ES, ES, ER); FAP-C3-VK1-VH4) scFv: EIVLTQSPGTLSLSPGERATLSCRASQSVGHYLAWYQQKPGQAPRLLIYDASNRAIDIPDRFSGSGSGTEFTLTISRLEPEDFAVYYCQQYYNDWPPLTFGGGTKVEIKGGGGSGGGGSGGGGSGGGGSDVQLVESGGGVVRPGESLTLSCAASGFTFSSYDMGWVRQAPGEGLEWVSGIRGRGGSTYYAESVKGRFTISRESSKNTLYLQMNSLRAEDTAVYYCAKENERHSFFEYWGLGTLVTVSS	24
